System: Streptococcus sp. 'group A'
experimental-protocol: Antimicrobial activity against macrolide-resistant Streptococcus sp. 'group A' by agar dilution method
Type: functional
observed-property: MIC90

- O=C(O)c1cn(C2CC2)c2cc(N3CCNCC3)c(F)cc2c1=O [CIPROFLOXACIN]: 2 µg/mL
- CO/N=C(\C(=O)N[C@@H]1C(=O)N2C(C(=O)O)=C(COC(N)=O)CS[C@H]12)c1ccco1 [CEFUROXIME]: 0.03 µg/mL
- CC[C@H]1OC(=O)[C@H](C)[C@@H](O[C@H]2C[C@@](C)(OC)[C@@H](O)[C@H](C)O2)[C@H](C)[C@@H](O[C@@H]2O[C@H](C)C[C@H](N(C)C)[C@H]2O)[C@](C)(O)C[C@@H](C)CN(C)[C@H](C)[C@@H](O)[C@]1(C)O [AZITHROMYCIN]: > 64 µg/mL
- COc1cc(Cc2cnc(N)nc2N)c2cc(Cc3c(C(=O)N(C)C)[nH]c4ccc(Cl)cc34)oc2c1OC: 0.03 µg/mL
- C[C@H]1COc2c(N3CCN(C)CC3)c(F)cc3c(=O)c(C(=O)O)cn1c23.C[C@H]1COc2c(N3CCN(C)CC3)c(F)cc3c(=O)c(C(=O)O)cn1c23.O [LEVOFLOXACIN]: 1 µg/mL

----------
System: Streptococcus pneumoniae
experimental-protocol: Antimicrobial activity against penicillin-resistant Streptococcus pneumoniae by agar dilution method
Assay type: functional
observed-property: MIC90 (µg/mL)

• CC1(C)S[C@@H]2[C@H](NC(=O)Cc3ccccc3)C(=O)N2[C@H]1C(=O)O [PENICILLIN G] = 4
• C[C@H]1COc2c(N3CCN(C)CC3)c(F)cc3c(=O)c(C(=O)O)cn1c23.C[C@H]1COc2c(N3CCN(C)CC3)c(F)cc3c(=O)c(C(=O)O)cn1c23.O [LEVOFLOXACIN] = 4
• COc1cc(Cc2cnc(N)nc2N)c2cc(Cc3c(C(=O)N(C)C)[nH]c4ccc(Cl)cc34)oc2c1OC = 1
• CO/N=C(\C(=O)N[C@@H]1C(=O)N2C(C(=O)O)=C(COC(N)=O)CS[C@H]12)c1ccco1 [CEFUROXIME] = 16

----------
Test system: Streptococcus pneumoniae
experimental-protocol: Antimicrobial activity against trimethoprim-sulfamethoxazole-resistant Streptococcus pneumoniae by agar dilution method
Assay type: functional
observed-property: MIC90

* CO/N=C(\C(=O)N[C@@H]1C(=O)N2C(C(=O)O)=C(COC(N)=O)CS[C@H]12)c1ccco1 | 8 µg/mL
* O=C(O)c1cn(C2CC2)c2cc(N3CCNCC3)c(F)cc2c1=O | 4 µg/mL
* CC1(C)S[C@@H]2[C@H](NC(=O)Cc3ccccc3)C(=O)N2[C@H]1C(=O)O | 4 µg/mL
* C[C@H]1COc2c(N3CCN(C)CC3)c(F)cc3c(=O)c(C(=O)O)cn1c23.C[C@H]1COc2c(N3CCN(C)CC3)c(F)cc3c(=O)c(C(=O)O)cn1c23.O | 2 µg/mL
* COc1cc(Cc2cnc(N)nc2N)c2cc(Cc3c(C(=O)N(C)C)[nH]c4ccc(Cl)cc34)oc2c1OC | 0.5 µg/mL

----------
System: Streptococcus sp. 'group A'
experimental-protocol: Antimicrobial activity against macrolide-susceptible Streptococcus sp. 'group A' by agar dilution method
Type: functional
observed-property: MIC90 (µg/mL)

- CC[C@H]1OC(=O)[C@H](C)[C@@H](O[C@H]2C[C@@](C)(OC)[C@@H](O)[C@H](C)O2)[C@H](C)[C@@H](O[C@@H]2O[C@H](C)C[C@H](N(C)C)[C@H]2O)[C@](C)(O)C[C@@H](C)CN(C)[C@H](C)[C@@H](O)[C@]1(C)O [AZITHROMYCIN]: 0.25
- C[C@H]1COc2c(N3CCN(C)CC3)c(F)cc3c(=O)c(C(=O)O)cn1c23.C[C@H]1COc2c(N3CCN(C)CC3)c(F)cc3c(=O)c(C(=O)O)cn1c23.O [LEVOFLOXACIN]: 2
- O=C(O)c1cn(C2CC2)c2cc(N3CCNCC3)c(F)cc2c1=O [CIPROFLOXACIN]: 1
- CO/N=C(\C(=O)N[C@@H]1C(=O)N2C(C(=O)O)=C(COC(N)=O)CS[C@H]12)c1ccco1 [CEFUROXIME]: 0.016
- COc1cc(Cc2cnc(N)nc2N)c2cc(Cc3c(C(=O)N(C)C)[nH]c4ccc(Cl)cc34)oc2c1OC: 0.06
